# testSystem: T1, HER2-ECD-Fc (human, UniProt P04626 23-652)
# T1 construct: extracellular domain; Produced in FreeStyle 293F cells; also called HER2-ECD Fc fusion protein
# measurementProtocol: ELISA on HER2-ECD-Fc; antibody at 5 µg/mL
This section presents binders with their documented absorbance values.

[
  {
    "binder": "hz39D2 (antibody, V domains shown, Humanized antibody, captured as IgG by anti-human IgG in SPR; also called humanized 39D2 antibody) VH: QVQLVQSGSELKKPGASVKVSCKASGYTFTNYGVNWVRQAPGQGLEWMGWINTHTGEPTYAEEFKGRFVFSLDTSVSTAYLQISSLKAEDTAVYYCARDDYYVRVDYWGQGTTVTVSS VL: DIQMTQSPSSLSASVGDRVTITCKASQDINSYLSWFQQKPGKAPKTLIYRANRLVDGVPSRFSGSGSGQDYTLTISSLQPEDFATYYCLQYDEFPWTFGQGTKVEIK",
    "absorbance": 2.9
  },
  {
    "binder": "1G3 (antibody, V domains shown) VH: EVQLQQSGAELVKPGASVKLSCTASDFNIVDTYMHWVKQRPEQGLEWIGRIDPANGYTRYDPNFQGKATITADTSSNTAYLQLSSLTSEDTAVYYCARYYYGFYAMDYWGQGTTVTVSS VL: DIVMTQSHKFMSTSVGDRVSITCKASQDVSTAVAWYQQKPGQSPKLLIYSASYRYTGVPDRFTGSGSGTDFTFTISSVQAEDLAVYYCQQHYSTPPTFGGGTKLELK",
    "absorbance": 2.81
  },
  {
    "binder": "hz8G11 (antibody, V domains shown, Humanized antibody, detected with anti-human IgG-HRP; also called humanized 8G11 antibody) VH: QVQLVQSGQEVKKPGASVKVSCKASGYSFTGYYMHWVRQAPGQGLEWIGHINPNNGGTSYNQKFKGRTTLTVDKSISTAYMELSRLRSDDTAVYYCAREEAFAYWGQGTLVTVSS VL: DIQMTQSPSSLSASVGDRVTISCRASQDISNYLNWYQQKPGKAPKLLIYYTSRLHSGVPSRFSGSGSGTDFSLTISSLQPEDIATYYCQQGITPPWTFGGGTKVEIK",
    "absorbance": 2.9
  },
  {
    "binder": "hz2G10 (antibody, V domains shown, Humanized antibody, detected with anti-human IgG-HRP; Only the variable domains are tied to the name; also called humanized 2G10 antibody) VH: EVQLVESGGGLVQPGGSLRLSCAASGFTFSDYYMYWVRQAPGKGLEWVAYINSGGGSTYYPDTVKGRFTISRDNAKNSLYLQMNSLRAEDTAVYYCAREALYDYDYAMDYWGQGTTVTVSS VL: DIVMTQSPLSLSVTPGQPASISCKSSQSLLYSNGKTYLNWLLQKPGQSPQRLIYLVSKLDSGVPDRFSGSGSGTDFTLKISRVEAEDVGVYYCVQGTHFPLTFGGGTKVEIK",
    "absorbance": 2.79
  }
]
